# System: pSTAT6 (pY641-STAT6) in PBMC
# TEST DETAILS: MSD-pSTAT-PBMC Assay (pSTAT6)
# Assay type: cell-based
# CONDITION NOTES: compound 3 hrs, then 1 ng/mL IL-4 for 10 min
pIC50: −log10 of the molar value.
The following molecules are shown together with reported pIC50 values.
RESULT TYPE: pIC50

{"columns": ["MOLECULE", "RESULT"],
 "data": [
  ["CCCC(=O)SCCOP(=O)(OCCSC(=O)CCC)C(F)(F)c1ccc2sc(C(=O)NC3CC4CC4CC4CCC(C(=O)N5CC(c6ccn(C7CCN(c8ccc9c(c8)[nH]c(=O)n9C8CCC(=O)NC8=O)CC7)c(=O)c6)CC56CC6)N4C3=O)cc2c1 (centres unmarked) [Compound 20]", "6.00 to 7.00"],
  ["CCCC(=O)SCCOP(=O)(OCCSC(=O)CCC)C(F)(F)c1ccc2sc(C(=O)NC3CC4CC4CC4CCC(C(=O)N5CC(NC(=O)CCCCCC#Cc6cccc7c6CN(C6CCC(=O)NC6=O)C7=O)(c6ccccn6)C5)N4C3=O)cc2c1 (centres unmarked) [Compound 2]", "< 5.52"],
  ["O=C1CCC(n2c(=O)[nH]c3cc(N4CCC(n5ccc([C@@H]6CN(C(=O)[C@@H]7CC[C@@H]8C[C@H]9C[C@H]9C[C@H](NC(=O)c9cc%10cc(C(F)(F)P(=O)(O)O)ccc%10s9)C(=O)N87)C7(CC7)C6)cc5=O)CC4)ccc32)C(=O)N1 (some centres unmarked) [Compound 19]", "< 5.52"],
  ["N#CC1CN(C(=O)C2CCC3CC4CC4CC(NC(=O)c4cc5cc(C(F)(F)P(=O)(O)O)ccc5s4)C(=O)N32)CC1c1cccc(OCCOCCOc2cccc3c2CN(C2CCC(=O)NC2=O)C3=O)c1 (centres unmarked) [Compound 15]", "< 5.52"],
  ["CCCC(=O)SCCOP(=O)(OCCSC(=O)CCC)C(F)(F)c1ccc2sc(C(=O)NC3CC4CC4CC4CCC(C(=O)N5CC(c6ccn(CCOCCOCCOc7cccc8c7CN(C7CCC(=O)NC7=O)C8=O)c(=O)c6)CC56CC6)N4C3=O)cc2c1 (centres unmarked) [Compound 18]", "6.00 to 7.00"],
  ["CCCC(=O)SCCOP(=O)(OCCSC(=O)CCC)C(F)(F)c1ccc2sc(C(=O)NC3CC4CC4CC4CCC(C(=O)N5CC(c6ccn(CCCCCOc7ccc(C8CCC(=O)NC8=O)cc7)c(=O)c6)CC56CC6)N4C3=O)cc2c1 (centres unmarked) [Compound 9]", "> 7.00"],
  ["N#CC1CN(C(=O)C2CCC3CC4CC4CC(NC(=O)c4cc5cc(C(F)(F)P(=O)(O)O)ccc5s4)C(=O)N32)CC1c1cccc(OCCCCOc2ccc(C3CCC(=O)NC3=O)cc2)c1 (centres unmarked) [Compound 3]", "< 5.52"],
  ["N#CC1CN(C(=O)C2CCC3CC4CC4CC(NC(=O)c4cc5cc(C(F)(F)P(=O)(O)O)ccc5s4)C(=O)N32)CC1c1cccc(OCCCCCC#Cc2cccc3c2CN(C2CCC(=O)NC2=O)C3=O)c1 (centres unmarked) [Compound 7]", "< 5.52"],
  ["N#CC1CN(C(=O)C2CCC3CC4CC4CC(NC(=O)c4cc5cc(C(F)(F)P(=O)(O)O)ccc5s4)C(=O)N32)CC1c1cccc(N2CCN(c3ccc4c(c3)[nH]c(=O)n4C3CCC(=O)NC3=O)CC2)c1 (centres unmarked) [Compound 13]", "6.00 to 7.00"],
  ["CCCC(=O)SCCOP(=O)(OCCSC(=O)CCC)C(F)(F)c1ccc2sc(C(=O)NC3CC4CC4CC4CCC(C(=O)N5CC(C#N)C(c6cccc(OCCCCOc7ccc(C8CCC(=O)NC8=O)cc7)c6)C5)N4C3=O)cc2c1 (centres unmarked) [Compound 4]", "6.00 to 7.00"],
  ["O=C1CCC(N2Cc3c(C#CCCCCCCn4ccc([C@@H]5CN(C(=O)[C@@H]6CC[C@@H]7C[C@H]8C[C@H]8C[C@H](NC(=O)c8cc9cc(C(F)(F)P(=O)(O)O)ccc9s8)C(=O)N76)C6(CC6)C5)cc4=O)cccc3C2=O)C(=O)N1 (some centres unmarked) [Compound 5]", "6.00 to 7.00"],
  ["CCCC(=O)SCCOP(=O)(OCCSC(=O)CCC)C(F)(F)c1ccc2sc(C(=O)NC3CC4CC4CC4CCC(C(=O)N5CC(C#N)C(c6cccc(N7CCN(c8ccc9c(c8)[nH]c(=O)n9C8CCC(=O)NC8=O)CC7)c6)C5)N4C3=O)cc2c1 (centres unmarked) [Compound 14]", "> 7.00"],
  ["CCCC(=O)SCCOP(=O)(OCCSC(=O)CCC)C(F)(F)c1ccc2sc(C(=O)NC3CC4CC4CC4CCC(C(=O)N5CC(C#N)C(c6cccc(OCCOCCOc7cccc8c7CN(C7CCC(=O)NC7=O)C8=O)c6)C5)N4C3=O)cc2c1 (centres unmarked) [Compound 16]", "> 7.00"],
  ["CCCC(=O)SCCOP(=O)(OCCSC(=O)CCC)C(F)(F)c1ccc2sc(C(=O)NC3CC4CC4CC4CCC(C(=O)N5CC(C#N)C(c6cccc(OCCCCCC#Cc7cccc8c7CN(C7CCC(=O)NC7=O)C8=O)c6)C5)N4C3=O)cc2c1 (centres unmarked) [Compound 8]", "> 7.00"],
  ["O=C1CCC(N2Cc3c(OCCOCCOCCn4ccc([C@@H]5CN(C(=O)[C@@H]6CC[C@@H]7C[C@H]8C[C@H]8C[C@H](NC(=O)c8cc9cc(C(F)(F)P(=O)(O)O)ccc9s8)C(=O)N76)C6(CC6)C5)cc4=O)cccc3C2=O)C(=O)N1 (some centres unmarked) [Compound 17]", "< 5.52"],
  ["O=C1CCC(c2ccc(OCCCCCn3ccc([C@@H]4CN(C(=O)[C@@H]5CC[C@@H]6C[C@H]7C[C@H]7C[C@H](NC(=O)c7cc8cc(C(F)(F)P(=O)(O)O)ccc8s7)C(=O)N65)C5(CC5)C4)cc3=O)cc2)C(=O)N1 (some centres unmarked) [Compound 10]", "5.52 to 6.00"],
  ["CCCC(=O)SCCOP(=O)(OCCSC(=O)CCC)C(F)(F)c1ccc2sc(C(=O)NC3CC4CC4CC4CCC(C(=O)N5CC(c6ccn(CCCCCCC#Cc7cccc8c7CN(C7CCC(=O)NC7=O)C8=O)c(=O)c6)CC56CC6)N4C3=O)cc2c1 (centres unmarked) [Compound 6]", "> 7.00"]
]}

###

# SYSTEM UNDER TEST: Recombinant STAT6 protein (STAT6(W123-T658)) (Homo sapiens, UniProt P42226)
# Construct: Recombinant STAT6 protein (STAT6(W123-T658))
# Sequence (P42226 123-658): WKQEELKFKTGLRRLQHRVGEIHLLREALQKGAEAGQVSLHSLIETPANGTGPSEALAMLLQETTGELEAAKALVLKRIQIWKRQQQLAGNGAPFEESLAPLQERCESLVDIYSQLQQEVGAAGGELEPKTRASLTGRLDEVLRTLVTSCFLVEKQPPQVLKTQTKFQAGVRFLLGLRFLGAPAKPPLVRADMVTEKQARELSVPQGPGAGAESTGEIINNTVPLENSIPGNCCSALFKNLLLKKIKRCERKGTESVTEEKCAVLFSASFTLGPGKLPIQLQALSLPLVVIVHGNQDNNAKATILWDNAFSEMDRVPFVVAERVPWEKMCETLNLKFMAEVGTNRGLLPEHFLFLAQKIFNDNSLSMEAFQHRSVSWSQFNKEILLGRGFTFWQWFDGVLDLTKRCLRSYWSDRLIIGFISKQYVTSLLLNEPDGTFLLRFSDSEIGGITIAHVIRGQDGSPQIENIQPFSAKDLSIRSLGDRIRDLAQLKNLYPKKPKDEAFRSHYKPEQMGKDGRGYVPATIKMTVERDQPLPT
# TEST DETAILS: STAT6 Fluorescence Polarization (FP) Assay
# CONDITION NOTES: 250 nM STAT6(W123-T658), 2 nM 5-FAM-Ap[…]-NH2 probe, pH 7.4, 45-minute incubation at room temperature

{"columns": ["MOLECULE", "IC50"],
 "data": [
  ["N#CC1CN(C(=O)C2CCC3CC4CC4CC(NC(=O)c4cc5cc(C(F)(F)P(=O)(O)O)ccc5s4)C(=O)N32)CC1c1cccc(OCCOCCOc2cccc3c2CN(C2CCC(=O)NC2=O)C3=O)c1 (stereo not shown)", "< 0.3 µM"],
  ["O=C1CCC(N2Cc3c(C#CCCCCCC(=O)NC4(c5ccccn5)CN(C(=O)[C@@H]5CC[C@@H]6C[C@H]7C[C@H]7C[C@H](NC(=O)c7cc8cc(C(F)(F)P(=O)(O)O)ccc8s7)C(=O)N65)C4)cccc3C2=O)C(=O)N1 (stereo partly shown)", "3 to 30 µM"],
  ["O=C1CCC(N2Cc3c(OCCOCCOCCn4ccc([C@@H]5CN(C(=O)[C@@H]6CC[C@@H]7C[C@H]8C[C@H]8C[C@H](NC(=O)c8cc9cc(C(F)(F)P(=O)(O)O)ccc9s8)C(=O)N76)C6(CC6)C5)cc4=O)cccc3C2=O)C(=O)N1 (stereo partly shown)", "0.3 to 3 µM"],
  ["O=C1CCC(N2Cc3c(C#CCCCCCCn4ccc([C@@H]5CN(C(=O)[C@@H]6CC[C@@H]7C[C@H]8C[C@H]8C[C@H](NC(=O)c8cc9cc(C(F)(F)P(=O)(O)O)ccc9s8)C(=O)N76)C6(CC6)C5)cc4=O)cccc3C2=O)C(=O)N1 (stereo partly shown)", "0.3 to 3 µM"]
]}

###

The following molecules are shown together with reported IC50 values.
# SYSTEM UNDER TEST: Recombinant STAT3 protein (STAT3(G127-I722)) (Homo sapiens)
# Construct: Recombinant STAT3 protein (STAT3(G127-I722))
# Sequence (P40763 127-722): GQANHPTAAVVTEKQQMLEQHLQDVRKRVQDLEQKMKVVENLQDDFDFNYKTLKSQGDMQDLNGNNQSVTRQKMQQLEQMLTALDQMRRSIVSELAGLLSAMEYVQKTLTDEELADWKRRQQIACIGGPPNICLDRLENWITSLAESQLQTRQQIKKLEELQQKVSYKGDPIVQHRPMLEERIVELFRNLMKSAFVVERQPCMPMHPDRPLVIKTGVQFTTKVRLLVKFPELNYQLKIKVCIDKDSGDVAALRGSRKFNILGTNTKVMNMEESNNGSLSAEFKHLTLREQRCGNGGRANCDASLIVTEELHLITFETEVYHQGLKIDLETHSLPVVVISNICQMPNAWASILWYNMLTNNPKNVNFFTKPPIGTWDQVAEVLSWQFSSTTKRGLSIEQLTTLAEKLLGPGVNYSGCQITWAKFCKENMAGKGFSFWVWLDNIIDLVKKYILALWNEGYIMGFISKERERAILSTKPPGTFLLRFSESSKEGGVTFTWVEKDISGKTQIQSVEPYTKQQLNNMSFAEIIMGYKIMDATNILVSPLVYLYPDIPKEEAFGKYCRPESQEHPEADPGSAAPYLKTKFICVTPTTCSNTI
# TEST DETAILS: STAT3 Fluorescence Polarization (FP) Assay
# CONDITION NOTES: 25 nM STAT3(G127-I722), 2 nM 5-FAM-GpYLPQTV-NH2 probe, pH 7.4, 45-minute incubation at room temperature

{"columns": ["MOLECULE", "IC50"],
 "data": [
  ["O=C1CCC(c2ccc(OCCCCCn3ccc([C@@H]4CN(C(=O)[C@@H]5CC[C@@H]6C[C@H]7C[C@H]7C[C@H](NC(=O)c7cc8cc(C(F)(F)P(=O)(O)O)ccc8s7)C(=O)N65)C5(CC5)C4)cc3=O)cc2)C(=O)N1 (stereo partly shown) [Compound 10]", "100 to 1000 nM"],
  ["O=C1CCC(N2Cc3c(C#CCCCCCCn4ccc([C@@H]5CN(C(=O)[C@@H]6CC[C@@H]7C[C@H]8C[C@H]8C[C@H](NC(=O)c8cc9cc(C(F)(F)P(=O)(O)O)ccc9s8)C(=O)N76)C6(CC6)C5)cc4=O)cccc3C2=O)C(=O)N1 (stereo partly shown) [Compound 5]", "100 to 1000 nM"],
  ["O=C1CCC(N2Cc3c(OCCOCCOCCn4ccc([C@@H]5CN(C(=O)[C@@H]6CC[C@@H]7C[C@H]8C[C@H]8C[C@H](NC(=O)c8cc9cc(C(F)(F)P(=O)(O)O)ccc9s8)C(=O)N76)C6(CC6)C5)cc4=O)cccc3C2=O)C(=O)N1 (stereo partly shown) [Compound 17]", "1000 to 10000 nM"],
  ["O=C1CCC(c2ccc(OCC(=O)N3CCN(c4ccncc4C4CN(C(=O)[C@@H]5CC[C@@H]6C[C@H]7C[C@H]7C[C@H](NC(=O)c7cc8cc(C(F)(F)P(=O)(O)O)ccc8s7)C(=O)N65)C4)CC3)cc2)C(=O)N1 (stereo partly shown) [Compound 21]", "< 100 nM"],
  ["N#CC1CN(C(=O)C2CCC3CC4CC4CC(NC(=O)c4cc5cc(C(F)(F)P(=O)(O)O)ccc5s4)C(=O)N32)CC1c1cccc(OCCCCCC#Cc2cccc3c2CN(C2CCC(=O)NC2=O)C3=O)c1 (stereo not shown) [Compound 7]", "100 to 1000 nM"],
  ["N#CC1CN(C(=O)C2CCC3CC4CC4CC(NC(=O)c4cc5cc(C(F)(F)P(=O)(O)O)ccc5s4)C(=O)N32)CC1c1cccc(OCCOCCOc2cccc3c2CN(C2CCC(=O)NC2=O)C3=O)c1 (stereo not shown) [Compound 15]", "100 to 1000 nM"],
  ["N#CC1CN(C(=O)C2CCC3CC4CC4CC(NC(=O)c4cc5cc(C(F)(F)P(=O)(O)O)ccc5s4)C(=O)N32)CC1c1cccc(OCCCCOc2ccc(C3CCC(=O)NC3=O)cc2)c1 (stereo not shown) [Compound 3]", "1000 to 10000 nM"]
]}

Cited source for all entries: patent US20260308185A1
